Values compiled from patent US20220380347A1.

- ASSAYED TARGET: 229E Mpro (Human coronavirus 229E, UniProt P0C6X1)
- Sequence (P0C6X1 2966-3267): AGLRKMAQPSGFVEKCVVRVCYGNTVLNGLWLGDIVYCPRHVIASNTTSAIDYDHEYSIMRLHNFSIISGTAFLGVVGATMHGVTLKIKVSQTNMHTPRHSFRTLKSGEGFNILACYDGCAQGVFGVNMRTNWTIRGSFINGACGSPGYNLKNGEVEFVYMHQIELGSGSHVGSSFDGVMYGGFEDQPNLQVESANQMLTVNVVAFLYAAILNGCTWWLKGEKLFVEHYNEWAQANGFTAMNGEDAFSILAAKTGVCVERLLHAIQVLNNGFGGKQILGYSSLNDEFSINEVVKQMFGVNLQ
- METHOD DESCRIPTION: 229E Mpro enzymatic assay (standard methods, SARS-CoV2 Mpro assay given as exemplary)
- Format: biochemical, human coronavirus (HCov) 229E
- EXPERIMENTAL CONDITIONS: 229E Mpro EC50
pEC50: −log10 of the molar value.
QUANTITY: pEC50

// worked examples, pEC50 included
| MOLECULE | pEC50 |
| --- | --- |
| CC1(C)CN(C#N)[C@@H](C(=O)N(c2ccc(C(C)(C)C)cc2)C(C(=O)NC2CCOCC2)c2cccnc2)CO1 (single isomer, unassigned) [1141 Isomer 4] | > 5.70 |
| CO[C@@H]1C[C@H](C(=O)N(c2ccc(S(F)(F)(F)(F)F)cc2)C(C(=O)NCC2(C)COC2)c2cccnc2)N(C#N)C1 (single isomer, unassigned) [1176 Isomer 1] | > 5.70 |
| N#CN1CC(=O)NCC1C(=O)N(c1ccc(S(F)(F)(F)(F)F)cc1)C(C(=O)NC1CCC(F)(F)CC1)c1cncc(F)c1 (stereo not shown) [Compound 1160] | > 5.70 |
| CC(C)(C#N)C(=O)N(c1ccc(S(F)(F)(F)(F)F)cc1)C(C(=O)NC1CCC(F)(F)CC1)c1cncc(F)c1 (single isomer, unassigned) [Compound 1316 Isomer 2] | < 4.52 |
| CO[C@@H]1C[C@H](C(=O)N(c2ccc(S(F)(F)(F)(F)F)cc2)C(C(=O)NCCN2CCN(C(=O)OC(C)(C)C)CC2)c2cccnc2)N(C#N)C1 (stereo partly shown) [Compound 1267] | > 5.70 |
| CO[C@@H]1C[C@H](C(=O)N(c2ccc(S(F)(F)(F)(F)F)cc2)C(C(=O)NC(C)C2CCCCN2C(=O)OC(C)(C)C)c2cccnc2)N(C#N)C1 (single isomer, unassigned) [1303 Isomer 3.1] | > 5.70 |

# per-item lookup of pEC50; items listed below
1. CC(C)(C)c1ccc(N(C(=O)[C@H]2CCCN2C#N)C(C(=O)NCC2COC2)c2cccnc2)cc1 (single isomer, unassigned) [Compound 419 Isomer 1]
2. N#CC1(Nc2ccc(S(F)(F)(F)(F)F)cc2)CCCc2ccncc21 (stereo not shown) [Compound 690b]
3. CC(C)(C)c1ccc(N(C(=O)C2NCC[C@H]2F)C(C(=O)NC2CCCCC2)c2cccnc2)cc1 (stereo partly shown) [Compound 853]

1. > 5.70
2. < 4.52
3. 5.00 to 5.70

====

- ASSAYED TARGET: 229E Mpro (Human coronavirus 229E, UniProt P0C6X1)
- METHOD DESCRIPTION: 229E Mpro enzymatic assay (standard methods, SARS-CoV2 Mpro assay given as exemplary)
- Type: biochemical, human coronavirus (HCov) 229E
- EXPERIMENTAL CONDITIONS: 229E Mpro EC50
pEC50: −log10 of the molar value.
QUANTITY: pEC50

| COMPOUND | ASSAYED TARGET | pEC50 |
| --- | --- | --- |
| CC1(C)CCN(C#N)[C@H]1C(=O)N(c1ccc(S(F)(F)(F)(F)F)cc1)C(C(=O)NC1CCC(F)(F)CC1)c1cncc(F)c1 (single isomer, unassigned) [1094 Isomer 1] | 229E Mpro (Human coronavirus 229E, UniProt P0C6X1) | > 5.70 |

# per-item lookup of pEC50; items listed below
1. CC(C)(C)c1ccc(N(C(=O)c2nsnc2Cl)C(C(=O)NC2CCCCC2)c2cccnc2)cc1 (stereo not drawn) [Compound 123]
2. CN1CC(C(=O)N(c2ccc(S(F)(F)(F)(F)F)cc2)C(C(=O)NC2CCC(F)(F)CC2)c2cncc(F)c2)N(C#N)CC1=O (single isomer, unassigned) [Compound 1161 Isomer 4]
3. C[C@@]1(O)C[C@H](C(=O)N(c2ccc(S(F)(F)(F)(F)F)cc2)C(C(=O)NC2CCC(F)(F)CC2)c2cccnc2F)N(C#N)C1 (single isomer, unassigned) [1158 Isomer 1]
4. CO[C@@H]1C[C@H](C(=O)N(c2ccc(S(F)(F)(F)(F)F)cc2)C(C(=O)NC(C)C2CCCCN2C(=O)OC(C)(C)C)c2cccnc2)N(C#N)C1 (single isomer, unassigned) [1303 Isomer 2]

> 5.70
5.00 to 5.70
> 5.70
> 5.70

# return recorded pEC50 for input CN1CN(C(=O)C(c2cccnc2)N(C(=O)[C@H]2CCCN2C#N)c2ccc(C(C)(C)C)cc2)CC1=O (stereo partly drawn) [Compound 962] 5.00 to 5.70

====

- Tested on: HCov OC43
- METHOD DESCRIPTION: HCoV OC43 cytopathic effect (CPE) assay, CellTiter Glo
- Type: cell-based, human coronavirus (HCov) OC43
- EXPERIMENTAL CONDITIONS: read-out: OC43 IC50 (uM) MEDIAN; median; listed as 407 Isomer 2
QUANTITY: IC50

# return recorded IC50 for input COc1ccc(NC(=O)C(c2cccnc2)N(C(=O)[C@H]2CCCN2C#N)c2ccc(C(C)(C)C)cc2)cn1 (single isomer, unassigned) [Compound 407 Isomer 2] > 30 µM

====

- ASSAYED TARGET: UniProtKB P0DTD1
- METHOD DESCRIPTION: COVID-19 (nCoV-2019, SARS-CoV2) Mpro enzymatic assay
- Assay type: biochemical
- EXPERIMENTAL CONDITIONS: 25 nM Mpro, 25 μM substrate; read-out: COVID-19 Mpro IC50
For each of the molecules below, state its IC50.

// worked examples, IC50 included
| MOLECULE | RESULT |
| --- | --- |
| CC1(C)C[C@H](C(=O)N(c2ccc(C(C)(C)C)cc2)C(C(=O)NC2CCCCC2)c2cccnc2)N(C#N)C1 (single isomer, unassigned) [Compound 268 Isomer 2] | < 2 µM |
| CC(C)(C)c1ccc(N(C(=O)[C@H]2N(C#N)CC2(C)C)C(C(=O)NC2CCCCC2)c2cccnc2)cc1 (stereo partly drawn) [Compound 136a] | > 30 µM |

Shifting focus to the molecule that follows.
# return recorded IC50 for input CC(C)(C)c1ccc(N(C(=O)[C@H]2C[C@@H](Oc3ccccc3)CN2C#N)C(C(=O)NC2CCCCC2)c2cccnc2)cc1 (single isomer, unassigned) [307 Isomer 1] < 2 µM

====

- ASSAYED TARGET: COVID-19 (nCoV-2019, SARS-CoV2) Mpro (Severe acute respiratory syndrome coronavirus 2, UniProt P0DTD1)
- METHOD DESCRIPTION: COVID-19 (nCoV-2019, SARS-CoV2) Mpro enzymatic assay
- Type: biochemical
- EXPERIMENTAL CONDITIONS: 25 nM Mpro, 25 μM substrate; read-out: COVID-19 Mpro IC50
pIC50: −log10 of the molar value.
QUANTITY: pIC50

| MOLECULE | QUANTITY | RESULT |
| --- | --- | --- |
| N#CN1C[C@H](O)C[C@@H]1C(=O)N(c1ccc(C2(C(F)(F)F)CC2)cc1)C(C(=O)NC1CCC(F)(F)CC1)c1cncc(F)c1 (single isomer, unassigned) [Compound 815a Isomer 1] | pIC50 | > 5.70 |
| CC(C)(C)c1ccc(N(C(=O)C2CCC(F)(F)CN2C#N)C(C(=O)NC2CCCCC2)c2cccnc2)cc1 (single isomer, unassigned) [885 Isomer 1] | pIC50 | < 4.52 |

# per-item lookup of pIC50; items listed below
1. N#CN1CCOC[C@@H]1C(=O)N(c1ccc(C2CC2)cc1F)C(C(=O)NC1CCC(F)(F)CC1)c1cnccc1C(F)(F)F (single isomer, unassigned) [Compound 1313 Isomer 2]
2. CC1(C)CN(C#N)[C@@H](C(=O)N(c2ccc(C(C)(C)C)cc2)C(C(=O)NC2CCOCC2)c2cccnc2)CO1 (single isomer, unassigned) [1141 Isomer 1]
3. CO[C@@H]1C[C@H](C(=O)N(c2ccc(C3CC3)cc2F)C(C(=O)NC2CCC(F)(F)CC2)c2cnccc2C(F)(F)F)N(C#N)C1 (single isomer, unassigned) [Compound 1309 Isomer 1]

1: 5.00 to 5.70; 2: 5.00 to 5.70; 3: > 5.70

# per-item lookup of pIC50; items listed below
1. CO[C@@H]1C[C@H](C(=O)N(c2ccc(S(F)(F)(F)(F)F)cc2)C(C(=O)NC2CCC(F)(F)CC2)c2cncs2)N(C#N)C1 (stereo partly shown) [Compound 1311]
2. CN1C[C@H](C(=O)N(c2ccc(S(F)(F)(F)(F)F)cc2)C(C(=O)NC2CCOCC2)c2cccnc2)N(C#N)CC1=O (stereo partly shown) [Compound 813]
3. O=C(NC1CCC(F)(F)CC1)C(c1cncc(F)c1)N(C(=O)c1cnc[nH]1)c1ccc(C2CC2)cc1F (single isomer, unassigned) [1336 Isomer 2]

> 5.70
> 5.70
4.52 to 5.00
